B1: library; numbered along this chain (parent)
chain: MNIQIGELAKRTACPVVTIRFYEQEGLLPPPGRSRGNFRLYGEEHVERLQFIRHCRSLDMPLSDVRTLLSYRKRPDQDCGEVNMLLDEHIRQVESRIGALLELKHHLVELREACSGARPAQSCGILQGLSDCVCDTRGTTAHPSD

Variants of: B1
Assay: sfGFP reporter fluorescence (15 h) (µM FITC); higher = higher leak
Conditions: library round: Round 0; ligand: none
Listed here: items and their measured sfGFP reporter fluorescence.
RECORDED_ENDPOINT: sfGFP reporter fluorescence

> print(dat)
        mutant.designation  experimental.value
 1                    V46L              0.0542
 2                    I90D              0.0568
 3   M60L D64K L107C G128I                5.03
 4                    M60T              0.0601
 5                    G36R              0.0597
 6                   L107P              0.0568
 7                    R91A              0.0618
 8                   L129V              0.0557
 9   P61N D64K K104V G128I                0.32
10                    G36N               0.064
11                   R111T              0.0599
12                    I90E              0.0579
13                     I3S              0.0586
14                   L110N              0.0579
15                     G6V              0.0618
16                   D131Y              0.0592
17                    D64P              0.0607
18                    L58Y              0.0784
19                   C114T              0.0583
20                   V108F              0.0561
21                    E43P              0.0574
22                   V108E              0.0579
23                    V16K              0.0641
24                     E7R               0.064
25                    P15L              0.0667
26                   H105A              0.0623
27                     I3W              0.0592
28                   I125E              0.0597
29                   V133A              0.0634
30                    L58W              0.0629
31                    F51A               0.066
32                    P15R              0.0634
33                    E94H              0.0592
34                    L27T              0.0621
35                    V16P               0.061
36                    E94Q              0.0632
37                    V46G               0.055
38    M60L P61N D64K G128M                1.99
39                    P15S              0.0621
40                    D64W              0.0815
41                    R33M              0.0629
42                    R20Y              0.0625
43                    I90K              0.0621
44                    P61I              0.0553
45                   P143M              0.0574
46                    E43D              0.0575
47                   E112T              0.0605
48                    I97Y              0.0603
49                    C79R              0.0601
50                   C114P              0.0552
51                   L110A              0.0727
52                    L62F              0.0599
53                    V46A              0.0619
54                    N83P              0.0577
55                   L129K              0.0581
56  D64K K104V L107C G128M                3.13
57                    V46I              0.0548
58                    P15N              0.0629
59                    P30Y              0.0616
60                    I97P              0.0542
61                    L58M              0.0583
62   M60L D64K K104V G128I                2.23
63                   C134A              0.0652
64                     I3D              0.0614
65                    G36A              0.0665
66                    P15M              0.0625
